Source listed as patent US11680056B2.

Quick reference for IC50 among some compounds
target: p38a/MK2 (Homo sapiens (Human), UniProt P49137+Q16539); test: p38a/MK2 biochemical assay: activation of MK2 by p38, FITC-HSP27 peptide phosphorylation (IMAP FP); settings: 10-point 1:3 dilution, top dose 10 μM; 60 pM active p38a, 1 nM inactive MK2, 10 μM ATP, 2 h incubation; read-out: p38a/MK2 (10 μM) Enzyme pIC50 (converted)
Sequence (P49137 46-400): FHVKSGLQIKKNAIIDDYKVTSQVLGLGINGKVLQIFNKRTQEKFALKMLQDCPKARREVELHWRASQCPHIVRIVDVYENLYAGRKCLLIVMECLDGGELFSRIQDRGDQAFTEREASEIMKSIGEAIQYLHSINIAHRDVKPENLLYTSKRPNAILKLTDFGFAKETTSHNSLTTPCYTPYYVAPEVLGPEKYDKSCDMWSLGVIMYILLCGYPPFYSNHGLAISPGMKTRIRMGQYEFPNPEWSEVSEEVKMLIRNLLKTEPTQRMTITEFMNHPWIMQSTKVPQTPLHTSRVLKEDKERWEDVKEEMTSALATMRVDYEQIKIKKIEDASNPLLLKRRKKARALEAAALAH
Sequence (Q16539 whole entry): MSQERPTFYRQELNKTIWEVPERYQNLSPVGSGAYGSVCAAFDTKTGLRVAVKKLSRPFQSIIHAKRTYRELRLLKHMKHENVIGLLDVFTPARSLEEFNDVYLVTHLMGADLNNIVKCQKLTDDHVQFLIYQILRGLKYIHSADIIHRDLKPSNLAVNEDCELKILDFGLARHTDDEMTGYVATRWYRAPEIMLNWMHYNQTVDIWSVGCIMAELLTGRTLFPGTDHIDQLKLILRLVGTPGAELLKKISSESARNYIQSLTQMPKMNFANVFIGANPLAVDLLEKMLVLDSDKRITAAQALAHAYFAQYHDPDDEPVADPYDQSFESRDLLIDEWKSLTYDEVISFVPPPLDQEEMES
measure: IC50 (µM)

compound: Cc1cnc(COc2cc(C)n(-c3cc(-c4ccnc(C(C)(C)O)n4)ncc3C)c(=O)c2Cl)c(F)c1 (single isomer, unassigned) [Example 23B]
tgt: p38a/MK2 (Homo sapiens (Human), UniProt P49137+Q16539)
unit-abbreviation: µM
result-qualifier: >
observed: 10

compound: Cc1cnc(-c2nc(C(C)(C)O)ncc2C2CC2)cc1-n1c(C)cc(OCc2ncc(F)cc2F)c(Cl)c1=O (single isomer, unassigned) [Example 31B]
tgt: p38a/MK2 (Homo sapiens (Human), UniProt P49137+Q16539)
unit-abbreviation: µM
result-qualifier: >
observed: 10

compound: Cc1cc(COc2cc(C)n(-c3cc(-c4ccnc(C(C)(C)O)n4)ncc3C)c(=O)c2Cl)ncc1F (single isomer, unassigned) [Example 22B]
tgt: p38a/MK2 (Homo sapiens (Human), UniProt P49137+Q16539)
unit-abbreviation: µM
result-qualifier: >
observed: 10

compound: Cc1cnc(-c2ccc(F)c(C(C)(C)O)n2)cc1-n1c(C)cc(OCc2ncc(F)cc2F)c(Cl)c1=O (single isomer, unassigned) [Example 24B]
tgt: p38a/MK2 (Homo sapiens (Human), UniProt P49137+Q16539)
unit-abbreviation: µM
result-qualifier: =
observed: 1.58

compound: Cc1cnc(-c2ccnc(C3(O)CC3)n2)cc1-n1c(C)cc(OCc2ncc(F)cc2F)c(Cl)c1=O (single isomer, unassigned) [Example 3B]
tgt: p38a/MK2 (Homo sapiens (Human), UniProt P49137+Q16539)
unit-abbreviation: µM
result-qualifier: >
observed: 10

compound: Cc1cnnc(COc2cc(C)n(-c3cc(-c4ccnc(C(C)(C)O)n4)ncc3C)c(=O)c2Cl)c1 [Example 28A]
tgt: p38a/MK2 (Homo sapiens (Human), UniProt P49137+Q16539)
unit-abbreviation: µM
result-qualifier: =
observed: 3.98

compound: CCc1cnc(-c2ccnc(C(C)(C)O)n2)cc1-n1c(C)cc(OCc2ncc(F)cc2F)c(Cl)c1=O (single isomer, unassigned) [Example 29B]
tgt: p38a/MK2 (Homo sapiens (Human), UniProt P49137+Q16539)
unit-abbreviation: µM
result-qualifier: >
observed: 10

compound: COc1cnc(-c2ccnc(C(C)(C)O)n2)cc1-n1c(C)cc(OCc2ncc(F)cc2F)c(Cl)c1=O (atropisomer, axis not shown) [Example 7]
tgt: p38a/MK2 (Homo sapiens (Human), UniProt P49137+Q16539)
unit-abbreviation: µM
result-qualifier: =
observed: 0.501

compound: Cc1cnc(-c2ccn(C(C)(C)CO)n2)cc1-n1c(C)cc(OCc2ncc(F)cc2F)c(Cl)c1=O (single isomer, unassigned) [Example 25B]
tgt: p38a/MK2 (Homo sapiens (Human), UniProt P49137+Q16539)
unit-abbreviation: µM
result-qualifier: =
observed: 3.16

compound: Cc1cnc(-c2ccnc([C@](C)(O)C3CC3)n2)cc1-n1c(C)cc(OCc2ncc(F)cc2F)c(Cl)c1=O (single isomer, unassigned) [Example 6C]
tgt: p38a/MK2 (Homo sapiens (Human), UniProt P49137+Q16539)
unit-abbreviation: µM
result-qualifier: =
observed: 3.16

compound: Cc1cnc(-c2ccnc(C3(CO)CC3)n2)cc1-n1c(C)cc(OCc2ncc(F)cc2F)c(Cl)c1=O (single isomer, unassigned) [Example 21A]
tgt: p38a/MK2 (Homo sapiens (Human), UniProt P49137+Q16539)
unit-abbreviation: µM
result-qualifier: >
observed: 10

compound: Cc1cnc(-c2cccc([C@@H](O)CO)n2)cc1-n1c(C)cc(OCc2ncc(F)cc2F)c(Cl)c1=O (single isomer, unassigned) [Example 34D]
tgt: p38a/MK2 (Homo sapiens (Human), UniProt P49137+Q16539)
unit-abbreviation: µM
result-qualifier: =
observed: 3.16

###

target: p38a/MK2 (Homo sapiens (Human), UniProt P49137+Q16539); assay: p38a/MK2 biochemical assay: activation of MK2 by p38, FITC-HSP27 peptide phosphorylation (IMAP FP); conditions: 10-point 1:3 dilution, top dose 10 μM; 60 pM active p38a, 1 nM inactive MK2, 10 μM ATP, 2 h incubation
measure: p38a/MK2 (10 μM) Enzyme pIC50

compound: Cc1cnc(-c2cccc([C@H](O)CO)n2)cc1-n1c(C)cc(OCc2ncc(F)cc2F)c(Cl)c1=O (atropisomer, axis not shown)
result-qualifier: =
observed: 7.4

compound: Cc1cnc(-c2nc(C(C)(C)O)cs2)cc1-n1c(C)cc(OCc2ncc(F)cc2F)c(Cl)c1=O (atropisomer, axis not shown)
result-qualifier: =
observed: 7.5

compound: Cc1cnc(-c2ccnc(C(C)(C)O)n2)cc1-n1c(C)cc(COc2ncc(F)cc2F)c(Cl)c1=O (atropisomer, axis not shown)
result-qualifier: =
observed: 5.4

compound: Cc1cnc(-c2cc(C3CC3)nc(C(C)(C)O)n2)cc1-n1c(C)cc(OCc2ncc(F)cc2F)c(Cl)c1=O (atropisomer, axis not shown)
result-qualifier: =
observed: 5.8

compound: Cc1cnc(-c2ccnc(C(C)(C)O)n2)cc1-c1c(C)cc(OCc2ncc(F)cc2F)c(Cl)c1F
result-qualifier: =
observed: 5.2

compound: Cc1cnc(-c2ccc3c(n2)[C@@H](O)CC3)cc1-n1c(C)cc(OCc2ncc(F)cc2F)c(Cl)c1=O (single isomer, unassigned) [Example 18C]
result-qualifier: <
observed: 5.0

compound: Cc1sc(-c2ccnc(C(C)(C)O)n2)cc1-n1c(C)cc(OCc2ncc(F)cc2F)c(Cl)c1=O (single isomer, unassigned) [Example 33B]
result-qualifier: =
observed: 6.5

compound: Cc1cnc(-c2nc(C(C)(C)O)cs2)cc1-n1c(C)cc(OCc2ncc(F)cc2F)cc1=O (atropisomer, axis not shown)
result-qualifier: <
observed: 5.0

compound: Cc1cnc(-c2ccnc([C@@](C)(O)C3CC3)n2)cc1-n1c(C)cc(OCc2ncc(F)cc2F)c(Cl)c1=O (racemic)
result-qualifier: =
observed: 7.5

compound: Cc1cnc(-c2ccnc(C(C)(C)C(F)F)n2)cc1-n1c(C)cc(OCc2ncc(F)cc2F)c(Cl)c1=O (atropisomer, axis not shown)
result-qualifier: =
observed: 7.8

compound: Cc1cnc(-c2ccnc(C(C)(C)CO)n2)cc1-n1c(C)cc(OCc2ncc(F)cc2F)c(Cl)c1=O (atropisomer, axis not shown)
result-qualifier: =
observed: 7.8

compound: Cc1cnc(-c2cccc([C@](C)(O)CO)n2)cc1-n1c(C)cc(OCc2ncc(F)cc2F)c(Cl)c1=O (atropisomer, axis not shown)
result-qualifier: =
observed: 7.7

###

molecular target: p38a/MK2 (Homo sapiens (Human), UniProt P49137+Q16539); experiment: p38a/MK2 biochemical assay: activation of MK2 by p38, FITC-HSP27 peptide phosphorylation (IMAP FP); conditions: 10-point 1:3 dilution, top dose 10 μM; 60 pM active p38a, 1 nM inactive MK2, 10 μM ATP, 2 h incubation; read-out: p38a/MK2 (10 μM) Enzyme pIC50 (converted)

molecule: Cc1cnc(-c2ccn(C(C)(C)CO)n2)cc1-n1c(C)cc(OCc2ncc(F)cc2F)c(Cl)c1=O (single isomer, unassigned) [Example 25A]
IC50: 31.6 nM

molecule: Cc1cnc(-c2nc(C(C)(C)O)ncc2C2CC2)cc1-n1c(C)cc(OCc2ncc(F)cc2F)c(Cl)c1=O (single isomer, unassigned) [Example 31A]
IC50: 2000 nM

molecule: Cc1sc(-c2ccnc(C(C)(C)O)n2)nc1-n1c(C)cc(OCc2ncc(F)cc2F)c(Cl)c1=O [Example 17]
IC50: 2510 nM

###

# Lookup of reported IC50 keyed by entry
target: p38a/PRAK (Homo sapiens (Human), UniProt Q16539); experiment: p38a/PRAK biochemical assay: activation of PRAK by p38, FITC-HSP27 peptide phosphorylation (IMAP FP); conditions: 10-point 1:3 dilution, top dose 300 μM; 60 pM active p38a, 1 nM inactive PRAK, 10 μM ATP, 2 h incubation; read-out: p38a/PRAK Enzyme pIC50 (converted)
Sequence (Q16539 whole entry): as above

compound: [2H]C([2H])(Oc1cc(C)n(-c2c(C)cnc(-c3ccnc(C(O)(C([2H])([2H])[2H])C([2H])([2H])[2H])n3)c2F)c(=O)c1Cl)c1ncc(F)cc1F (single isomer, unassigned) [Example 67A]
unit-abbreviation: nM
IC50: 316
//
compound: Cc1cnc(-n2ccc(C(C)(C)O)n2)c(F)c1-n1c(C)cc(OCc2ncc(F)cc2F)c(Cl)c1=O (single isomer, unassigned) [Example 54B]
unit-abbreviation: nM
IC50: 1580
//
compound: Cc1cnc(-c2ccnc(C(C)(C)C(F)F)n2)cc1-n1c(C)cc(OCc2ncc(F)cc2F)c(Cl)c1=O (single isomer, unassigned) [Example 5A]
unit-abbreviation: nM
IC50: 2510
